ASSAY_TARGET: ~100 representative kinases (Homo sapiens)
Construct: Recombinant protein kinase domains with a concentration of 2 μM
ASSAY_SUMMARY: DSF 100 kinase selectivity screen;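 note: compound tested at 20 µM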
Assay type: binding
ASSAY_CONTEXT: Protein CAMK1D; average of three replicates
Each record's dTm is compared with Low: < -1 K; Medium: ≥ -1 K and < 0.06 K; High: ≥ 0.06 K to give its class.

Prompt line: Tag the class for Cc1ccc(-n2nc(C(C)(C)C)cc2NC(=O)Nc2cccc(-c3c[nH]c4nc(Cl)nc(N5CCOCC5)c34)c2)cc1 [Compound 30]
Response line: Medium

Prompt line: Record O=C(Nc1cccc(-c2c[nH]c3ncnc(N4CCOCC4)c23)c1)c1cccn(-c2ccc(F)cc2)c1=O [Compound 4] — which class?
Response line: Low

Prompt line: Please classify: Cc1cc(NC(=O)C2(C(=O)Nc3cccc(-c4c[nH]c5ncnc(N6CCOCC6)c45)c3)CC2)ccc1F [Compound 20]
Response line: Medium

Prompt line: Which dTm category applies to O=C(Nc1cccc(-c2c[nH]c3ncnc(N4CCOCC4)c23)c1)C1(C(=O)Nc2ccc(F)cc2F)CC1 [Compound 23] here?
Response line: Low

Prompt line: Looking at O=C(Nc1cccc(-c2c[nH]c3ncnc(N4CCOCC4)c23)c1)C1(C(=O)Nc2ccc(F)c(F)c2)CC1 [Compound 17] , which class would you pick?
Response line: Medium

Prompt line: Please report the category associated with COc1cc2c(Oc3ccc(NC(=O)C4(C(=O)Nc5ccc(F)cc5)CC4)cc3F)ccnc2cc1OCCCN1CCOCC1 [Foretinib, reference compound] , nothing else.
Response line: High

Prompt line: Sort COc1cc(S(C)(=O)=O)ccc1Nc1nc(N(C)C)c2c(Cl)c[nH]c2n1 [Compound 37] into one of the categories.
Response line: High

Prompt line: Which band does Cn1cc(-c2c[nH]c3ncnc(N4CCOCC4)c23)cc1C#N [PFE-360] fall in?
Response line: Low

Prompt line: Any idea which band O=C(Nc1ccc(F)cc1)C1(C(=O)Nc2cccc(-c3c[nH]c4ncnc(N5CCOCC5)c34)c2)CC1 [Compound 2] is in?
Response line: Low

* * *

ASSAY_TARGET: ~100 representative kinases (Homo sapiens, UniProt P16083)
Construct: Recombinant protein kinase domains with a concentration of 2 μM
Sequence (P16083 whole entry, the tested form may be a part): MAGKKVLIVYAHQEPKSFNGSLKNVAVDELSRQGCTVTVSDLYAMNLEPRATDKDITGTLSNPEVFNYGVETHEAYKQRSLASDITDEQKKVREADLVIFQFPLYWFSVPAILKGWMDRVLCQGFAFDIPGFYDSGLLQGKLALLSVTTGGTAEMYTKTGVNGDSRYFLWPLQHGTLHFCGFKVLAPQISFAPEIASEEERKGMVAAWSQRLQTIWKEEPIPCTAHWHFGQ
ASSAY_SUMMARY: DSF 100 kinase selectivity screen;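 note: compound tested at 20 µM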
Type: binding
ASSAY_CONTEXT: protein NQO2; average of three replicates
Can you tell me dTm for the items I'm about to list?
Use K as the unit, but write only the number.

Prompt line: Fill in reported dTm for this entry: O=C(Nc1cccc(-c2c[nH]c3ncnc(N4CCOCC4)c23)c1)C1(C(=O)Nc2ccc(F)cc2F)CC1
Response line: -1.88

Prompt line: Identify measured dTm corresponding to O=C(Nc1cccc(-c2c[nH]c3ncnc(N4CCOCC4)c23)c1)C1(C(=O)Nc2ccc(F)c(Br)c2F)CC1
Response line: -2.66

Prompt line: Tell me its dTm given O=C(Nc1ccccc1)C1(C(=O)Nc2cccc(-c3c[nH]c4ncnc(N5CCOCC5)c34)c2)CC1 as the entry.
Response line: 1.99

Prompt line: Given Cc1cc(F)ccc1NC(=O)C1(C(=O)Nc2cccc(-c3c[nH]c4ncnc(N5CCOCC5)c34)c2)CC1 , respond with its dTm.
Response line: -2.19

* * *

ASSAY_TARGET: ~100 representative kinases (Homo sapiens, UniProt Q8TF76)
Construct: Recombinant protein kinase domains with a concentration of 2 μM
Sequence (Q8TF76 whole entry, the tested form may be a part): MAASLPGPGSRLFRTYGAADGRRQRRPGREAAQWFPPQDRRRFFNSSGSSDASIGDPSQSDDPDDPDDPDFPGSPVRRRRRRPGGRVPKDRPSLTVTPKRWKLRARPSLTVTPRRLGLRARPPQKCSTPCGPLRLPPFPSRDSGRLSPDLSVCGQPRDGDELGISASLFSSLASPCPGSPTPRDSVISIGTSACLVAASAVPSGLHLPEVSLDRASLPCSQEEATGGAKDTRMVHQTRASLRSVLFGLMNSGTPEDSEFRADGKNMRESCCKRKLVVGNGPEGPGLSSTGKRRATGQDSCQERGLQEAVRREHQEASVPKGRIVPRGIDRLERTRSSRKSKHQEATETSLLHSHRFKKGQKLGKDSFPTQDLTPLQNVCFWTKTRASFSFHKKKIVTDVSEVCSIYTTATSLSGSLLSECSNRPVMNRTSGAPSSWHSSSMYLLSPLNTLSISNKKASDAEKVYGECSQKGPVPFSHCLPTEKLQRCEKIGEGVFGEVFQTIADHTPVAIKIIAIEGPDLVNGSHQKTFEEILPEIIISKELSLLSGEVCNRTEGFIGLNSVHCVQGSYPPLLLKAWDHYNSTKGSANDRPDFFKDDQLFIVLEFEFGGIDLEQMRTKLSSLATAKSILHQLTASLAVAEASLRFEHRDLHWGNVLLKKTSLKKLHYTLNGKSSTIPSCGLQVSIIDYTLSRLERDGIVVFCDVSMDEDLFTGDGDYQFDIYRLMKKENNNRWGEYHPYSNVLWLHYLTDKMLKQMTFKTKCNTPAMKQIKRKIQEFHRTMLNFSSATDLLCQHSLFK
ASSAY_SUMMARY: DSF 100 kinase selectivity screen;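 note: compound tested at 20 µM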
Assay type: binding
ASSAY_CONTEXT: protein GSG2; average of three replicates
PROPERTY: dTm (K)
Number in K, nothing else.

Prompt line: Supply dTm value. Item: Cc1ccc(C(=O)Nc2ccc(CN3CCN(C)CC3)c(C(F)(F)F)c2)cc1C#Cc1cnc2[nH]ncc2c1 [GZD-824, reference compound]
Response line: 0.04

Prompt line: Report dTm for Cc1ccc(-n2nc(C(C)(C)C)cc2NC(=O)Nc2cccc(-c3c[nH]c4ncnc(N5CCOCC5)c34)c2)cc1
Response line: -2.91

Prompt line: Give a short answer stating reported dTm for CC(C)(C)c1cc(NC(=O)Nc2cccc(-c3c[nH]c4ncnc(N5CCOCC5)c34)c2)n(-c2ccc3ncccc3c2)n1 .
Response line: -2.39

* * *

Give measured dTm for each item. Keep answers brief.
ASSAY_TARGET: ~100 representative kinases (Homo sapiens, UniProt Q99640)
Construct: Recombinant protein kinase domains with a concentration of 2 μM
Sequence (Q99640 whole entry, the tested form may be a part): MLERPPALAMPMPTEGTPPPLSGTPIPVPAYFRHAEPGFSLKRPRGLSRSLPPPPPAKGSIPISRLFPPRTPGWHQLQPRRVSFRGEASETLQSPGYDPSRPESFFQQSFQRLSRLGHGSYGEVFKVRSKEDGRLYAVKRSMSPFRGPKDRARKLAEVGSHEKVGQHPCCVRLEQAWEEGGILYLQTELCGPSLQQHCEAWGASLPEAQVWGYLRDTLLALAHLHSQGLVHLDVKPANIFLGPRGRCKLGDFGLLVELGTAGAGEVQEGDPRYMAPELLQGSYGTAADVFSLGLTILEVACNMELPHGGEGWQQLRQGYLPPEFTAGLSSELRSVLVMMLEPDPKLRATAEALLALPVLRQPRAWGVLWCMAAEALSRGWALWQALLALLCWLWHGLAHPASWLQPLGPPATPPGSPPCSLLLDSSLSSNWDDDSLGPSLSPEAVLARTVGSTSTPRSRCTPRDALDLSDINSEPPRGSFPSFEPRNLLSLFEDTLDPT
ASSAY_SUMMARY: DSF 100 kinase selectivity screen;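 note: compound tested at 20 µM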
Type: binding
ASSAY_CONTEXT: protein PKMYT1; average of three replicates
Description: Recombinant protein kinase domains with a concentration of 2 μM were mixed with a 20 μM compound solution in dimethyl sulfoxide (DMSO), 20 mM Hepes (pH 7.5), and 500 mM NaCl. SYPRO Orange (5000×, Invitrogen) was added as a fluorescence probe (1μl/ml). Subsequently, temperature-dependent protein unfolding profiles were measured using the QuantStudio 5 realtime PCR machine (Thermo Fisher Scientific, Waltham, MA, USA). […] The temperature was raised with a step rate of 3°C/min. […]
State the result as a value with its unit after it.

Prompt line: Return dTm (reported value) for this molecule: Cn1cc(-c2c[nH]c3ncnc(N4CCOCC4)c23)cc1C#N
Response line: 0.19 K

Prompt line: Quick one: give measured dTm for Cc1ccc(C(=O)Nc2ccc(CN3CCN(C)CC3)c(C(F)(F)F)c2)cc1C#Cc1cnc2[nH]ncc2c1 [GZD-824, reference compound]
Response line: 0.44 K

Prompt line: Tell me measured dTm for CC(C)(C)c1cccc(NC(=O)C2(C(=O)Nc3cccc(-c4c[nH]c5ncnc(N6CCOCC6)c45)c3)CC2)c1 please.
Response line: -2.18 K

Prompt line: Quote dTm reported for CC(=O)N1CCN(c2nc(Cl)nc3[nH]cc(-c4cccc(NC(=O)Nc5cc(C(C)(C)C)nn5-c5ccc(C)cc5)c4)c23)CC1 please.
Response line: -0.30 K

Prompt line: Read off the recorded dTm for COc1ccc(NC(=O)C2(C(=O)Nc3cccc(-c4c[nH]c5ncnc(N6CCOCC6)c45)c3)CC2)cc1
Response line: -0.09 K

Prompt line: Entry Cc1cc(NC(=O)C2(C(=O)Nc3ccc(F)cc3)CC2)cc(-c2c[nH]c3ncnc(N4CCOCC4)c23)c1 needs its dTm filled in; supply it.
Response line: -0.19 K

Prompt line: Answer with the recorded dTm for the molecule listed here: O=C(Nc1cccc(-c2c[nH]c3ncnc(N4CCOCC4)c23)c1)C1(C(=O)Nc2ccc(F)c(F)c2)CC1
Response line: 0.00857 K

Prompt line: Identify measured dTm corresponding to O=C(Nc1cccc(-c2c[nH]c3ncnc(N4CCOCC4)c23)c1)C1(C(=O)Nc2ccc(F)c(Br)c2F)CC1
Response line: -0.69 K

Prompt line: Report dTm for O=C(Nc1cccc(-c2c[nH]c3ncnc(N4CCOCC4)c23)c1)c1cccn(-c2ccc(F)cc2)c1=O
Response line: 0.10 K

Prompt line: State its dTm for this molecule: CCc1ccc(NC(=O)C2(C(=O)Nc3cccc(-c4c[nH]c5ncnc(N6CCOCC6)c45)c3)CC2)cc1
Response line: 0.54 K

Prompt line: Write down dTm measured for item Cc1ccc(C(=O)Nc2ccc(CN3CCN(C)CC3)c(C(F)(F)F)c2)cc1C#Cc1cnc2cccnn12 [Ponatinib, reference compound]
Response line: -0.27 K

Prompt line: Identify the reported dTm for the following entry. COc1cc(NC(=O)C2(C(=O)Nc3cccc(-c4c[nH]c5ncnc(N6CCOCC6)c45)c3)CC2)ccc1F
Response line: -0.64 K

Prompt line: Indicate its recorded dTm; the molecule in question is Cc1ccc(-n2nc(C(C)(C)C)cc2NC(=O)Nc2cccc(-c3c[nH]c4ncnc(N5CCOCC5)c34)c2)cc1
Response line: -0.41 K

Prompt line: Quickly give me recorded dTm for CC(C)(C)c1cc(NC(=O)Nc2cccc(-c3c[nH]c4ncnc(N5CCOCC5)c34)c2)n(-c2ccc3ncccc3c2)n1
Response line: 0.83 K

* * *

ASSAY_TARGET: ~100 representative kinases (Homo sapiens, UniProt P15735)
Construct: Recombinant protein kinase domains with a concentration of 2 μM
Sequence (P15735 whole entry, the tested form may be a part): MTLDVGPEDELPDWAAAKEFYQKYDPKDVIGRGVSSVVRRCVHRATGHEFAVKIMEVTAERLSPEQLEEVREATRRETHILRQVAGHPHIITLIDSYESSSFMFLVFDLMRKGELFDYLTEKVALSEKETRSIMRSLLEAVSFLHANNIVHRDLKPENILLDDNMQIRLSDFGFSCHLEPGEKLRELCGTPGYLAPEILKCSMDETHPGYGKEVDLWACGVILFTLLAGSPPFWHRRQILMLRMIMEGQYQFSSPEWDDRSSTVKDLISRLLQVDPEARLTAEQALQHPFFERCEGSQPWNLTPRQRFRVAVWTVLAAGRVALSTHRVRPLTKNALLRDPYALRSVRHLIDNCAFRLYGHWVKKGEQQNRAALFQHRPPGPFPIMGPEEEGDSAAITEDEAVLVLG
ASSAY_SUMMARY: DSF 100 kinase selectivity screen;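 note: compound tested at 20 µM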
Type: binding
ASSAY_CONTEXT: protein PHKG2; average of three replicates
Mark each entry Criterion met if its dTm sits below 0.8 K, and Criterion not met for all others.

Prompt line: Determine if Cc1ccc(NC(=O)C2(C(=O)Nc3cccc(-c4c[nH]c5ncnc(N6CCOCC6)c45)c3)CC2)cc1 [Compound 14] shows dTm strictly lower than 0.8 K.
Response line: Criterion met

Prompt line: Is dTm strictly under 0.8 K for the entry O=C(Nc1cccc(-c2c[nH]c3ncnc(N4CCOCC4)c23)c1)C1(C(=O)Nc2cc(Br)c(F)cc2F)CC1 [Compound 25] ?
Response line: Criterion met

Prompt line: Is it true that dTm reported for O=C(Nc1cccc(-c2c[nH]c3ncnc(N4CCOCC4)c23)c1)C1(C(=O)Nc2cccc3c2CCC3)CC1 [Compound 11] is less than 0.8 K?
Response line: Criterion met

Prompt line: Strictly below 0.8 K: is that where dTm of CCc1ccc(NC(=O)C2(C(=O)Nc3cccc(-c4c[nH]c5ncnc(N6CCOCC6)c45)c3)CC2)cc1 [Compound 15] sits?
Response line: Criterion met

Prompt line: is_below(dTm, 0.8 K) for Cc1ccc(-n2nc(C(C)(C)C)cc2NC(=O)Nc2cccc(-c3c[nH]c4ncnc(N5CCOCC5)c34)c2)cc1 [Compound 29] ?
Response line: Criterion not met

Prompt line: Hello, I'm reviewing records and need to know if dTm of CC(C)(C)c1cc(NC(=O)Nc2cccc(-c3c[nH]c4ncnc(N5CCOCC5)c34)c2)n(-c2ccc3ncccc3c2)n1 [Compound 28] is below 0.8 K. Could you check?
Response line: Criterion not met

Prompt line: # TODO verify dTm < 0.8 K strictly for this molecule: CCNc1nc(Nc2cc(F)c(C(=O)N3CCOCC3)cc2OC)ncc1C(F)(F)F [GNE-7915]
Response line: Criterion not met

Prompt line: Lab log: compare recorded dTm with 0.8 K; is it strictly lower for Cc1cc(F)ccc1NC(=O)C1(C(=O)Nc2cccc(-c3c[nH]c4ncnc(N5CCOCC5)c34)c2)CC1 [Compound 24] ?
Response line: Criterion met

Prompt line: Please state whether dTm is below 0.8 K for C[C@@H]1CN(c2cc(-c3n[nH]c4ccc(OC5(C)CC5)cc34)ncn2)C[C@H](C)O1 [MLi2]
Response line: Criterion not met

Prompt line: Input O=C(Nc1cccc(-c2c[nH]c3ncnc(N4CCOCC4)c23)c1)c1cccn(-c2ccc(F)cc2)c1=O [Compound 4] ; condition: dTm strictly below 0.8 K. Does it hold?
Response line: Criterion met

Prompt line: # check: dTm < 0.8 K for COc1cc2c(Oc3ccc(NC(=O)C4(C(=O)Nc5ccc(F)cc5)CC4)cc3F)ccnc2cc1OCCCN1CCOCC1 [Foretinib, reference compound]
Response line: Criterion not met

Prompt line: Is the reported dTm for O=C(Nc1ccc(F)cc1)C1(C(=O)Nc2cccc(-c3c[nH]c4ncnc(N5CCOCC5)c34)c2)CC1 [Compound 2] strictly below 0.8 K?
Response line: Criterion not met

Prompt line: Could you please tell me whether dTm recorded for O=C(Nc1cccc(-c2c[nH]c3ncnc(N4CCOCC4)c23)c1)C1(C(=O)Nc2ccc(F)c(F)c2)CC1 [Compound 17] is less than 0.8 K?
Response line: Criterion not met

Prompt line: Report whether reported dTm is lower than 0.8 K (strictly) for Cc1ccc(C(=O)Nc2ccc(CN3CCN(C)CC3)c(C(F)(F)F)c2)cc1C#Cc1c[nH]c2ncnc(N3CCOCC3)c12 [Compound 1]
Response line: Criterion met
